Quick list: molar heat capacity at constant pressure per entry.
# testDetails: molar heat capacity at constant pressure
# condition: 201.15 K; 101.33 kPa; Crystal; Small sample (50 mg) DSC
reportedProperty: molar heat capacity at constant pressure (J/K/mol)

>  <molecule>
OC[C@@H](O)[C@H](O)[C@@H](O)CO

>  <reportedProperty>
molar heat capacity at constant pressure

>  <recordedValue>
141.4

$$$$
>  <molecule>
OC[C@@H](O)[C@@H](O)CO

>  <reportedProperty>
molar heat capacity at constant pressure

>  <recordedValue>
113.73

$$$$
>  <molecule>
OC[C@H](O)C(O)[C@@H](O)CO [L-(-)-arabitol]

>  <reportedProperty>
molar heat capacity at constant pressure

>  <recordedValue>
140.3

$$$$
>  <molecule>
OC[C@@H](O)C(O)[C@H](O)CO

>  <reportedProperty>
molar heat capacity at constant pressure

>  <recordedValue>
135.54

$$$$
>  <molecule>
O[C@H]1[C@H](O)[C@@H](O)[C@H](O)[C@@H](O)[C@H]1O [cis-1,2,3,5-trans-4,6-cyclohexanehexol]

>  <reportedProperty>
molar heat capacity at constant pressure

>  <recordedValue>
143.81

$$$$
>  <molecule>
OC[C@@H](O)[C@@H](O)[C@H](O)[C@H](O)CO

>  <reportedProperty>
molar heat capacity at constant pressure

>  <recordedValue>
157.4

$$$$

====

# testDetails: molar heat capacity at constant pressure
# condition: 308.15 K; 101.33 kPa; Crystal; Small sample (50 mg) DSC
Threshold-based label: molar heat capacity at constant pressure under 200 J/K/mol gives Yes, molar heat capacity at constant pressure not under 200 J/K/mol gives No.

>  <molecule>
OC[C@@H](O)[C@@H](O)[C@H](O)[C@H](O)CO

>  <groupLabel>
No

$$$$
>  <molecule>
O[C@H]1[C@H](O)[C@@H](O)[C@H](O)[C@@H](O)[C@H]1O [cis-1,2,3,5-trans-4,6-cyclohexanehexol]

>  <groupLabel>
No

$$$$
>  <molecule>
OC[C@@H](O)[C@H](O)[C@@H](O)CO

>  <groupLabel>
No

$$$$
>  <molecule>
OC[C@H](O)C(O)[C@@H](O)CO [L-(-)-arabitol]

>  <groupLabel>
No

$$$$
>  <molecule>
OC[C@@H](O)[C@@H](O)CO

>  <groupLabel>
Yes

$$$$
>  <molecule>
OC[C@@H](O)C(O)[C@H](O)CO

>  <groupLabel>
No

$$$$

====

# testDetails: molar heat capacity at constant pressure
# condition: 253.15 K; 101.33 kPa; Crystal; Small sample (50 mg) DSC
Item-by-item account of molar heat capacity at constant pressure

>  <molecule>
OC[C@@H](O)[C@H](O)[C@@H](O)CO

>  <molar heat capacity at constant pressure (J/K/mol)>
176.77

$$$$
>  <molecule>
OC[C@@H](O)[C@@H](O)[C@H](O)[C@H](O)CO

>  <molar heat capacity at constant pressure (J/K/mol)>
196.71

$$$$
>  <molecule>
OC[C@H](O)C(O)[C@@H](O)CO [L-(-)-arabitol]

>  <molar heat capacity at constant pressure (J/K/mol)>
174.57

$$$$
>  <molecule>
OC[C@@H](O)C(O)[C@H](O)CO

>  <molar heat capacity at constant pressure (J/K/mol)>
169.42

$$$$
>  <molecule>
OC[C@@H](O)[C@@H](O)CO

>  <molar heat capacity at constant pressure (J/K/mol)>
140.35

$$$$
>  <molecule>
O[C@H]1[C@H](O)[C@@H](O)[C@H](O)[C@@H](O)[C@H]1O [cis-1,2,3,5-trans-4,6-cyclohexanehexol]

>  <molar heat capacity at constant pressure (J/K/mol)>
183.36

$$$$

====

# testDetails: molar heat capacity at constant pressure
# condition: 212.15 K; 101.33 kPa; Crystal; Small sample (50 mg) DSC
molar heat capacity at constant pressure by entry:

>  <compound>
OC[C@H](O)C(O)[C@@H](O)CO [L-(-)-arabitol]

>  <molar heat capacity at constant pressure [J/K/mol]>
147.72

$$$$
>  <compound>
OC[C@@H](O)[C@@H](O)[C@H](O)[C@H](O)CO [D-mannitol]

>  <molar heat capacity at constant pressure [J/K/mol]>
166.24

$$$$
>  <compound>
O[C@H]1[C@H](O)[C@@H](O)[C@H](O)[C@@H](O)[C@H]1O [cis-1,2,3,5-trans-4,6-cyclohexanehexol]

>  <molar heat capacity at constant pressure [J/K/mol]>
152.59

$$$$
>  <compound>
OC[C@@H](O)C(O)[C@H](O)CO [D-arabitol]

>  <molar heat capacity at constant pressure [J/K/mol]>
142.99

$$$$
>  <compound>
OC[C@@H](O)[C@H](O)[C@@H](O)CO [xylitol]

>  <molar heat capacity at constant pressure [J/K/mol]>
149.22

$$$$
>  <compound>
OC[C@@H](O)[C@@H](O)CO [meso-1,2,3,4-butanetetrol]

>  <molar heat capacity at constant pressure [J/K/mol]>
119.45

$$$$

====

Measured molar heat capacity at constant pressure accompanies every entry in the list below.
# testDetails: molar heat capacity at constant pressure
# condition: 192.15 K; 101.33 kPa; Crystal; Small sample (50 mg) DSC
reportedProperty: molar heat capacity at constant pressure (J/K/mol)

>  <compound>
OC[C@@H](O)[C@@H](O)CO [meso-1,2,3,4-butanetetrol]

>  <reportedProperty>
molar heat capacity at constant pressure

>  <recordedValue>
107.53

$$$$
>  <compound>
OC[C@H](O)C(O)[C@@H](O)CO [L-(-)-arabitol]

>  <reportedProperty>
molar heat capacity at constant pressure

>  <recordedValue>
133.65

$$$$
>  <compound>
OC[C@@H](O)[C@@H](O)[C@H](O)[C@H](O)CO [D-mannitol]

>  <reportedProperty>
molar heat capacity at constant pressure

>  <recordedValue>
147.51

$$$$
>  <compound>
OC[C@@H](O)[C@H](O)[C@@H](O)CO [xylitol]

>  <reportedProperty>
molar heat capacity at constant pressure

>  <recordedValue>
132.97

$$$$
>  <compound>
OC[C@@H](O)C(O)[C@H](O)CO [D-arabitol]

>  <reportedProperty>
molar heat capacity at constant pressure

>  <recordedValue>
126.38

$$$$
>  <compound>
O[C@H]1[C@H](O)[C@@H](O)[C@H](O)[C@@H](O)[C@H]1O [cis-1,2,3,5-trans-4,6-cyclohexanehexol]

>  <reportedProperty>
molar heat capacity at constant pressure

>  <recordedValue>
135.65

$$$$

====

# testDetails: molar heat capacity at constant pressure
# condition: 259.15 K; 101.33 kPa; Crystal; Small sample (50 mg) DSC
± gives the expanded uncertainty stated by the source.
Reported molar heat capacity at constant pressure values are given for each entry in this list.
reportedProperty: molar heat capacity at constant pressure

>  <molecule>
OC[C@@H](O)[C@@H](O)[C@H](O)[C@H](O)CO [D-mannitol]

>  <recordedValue>
201.58 ± 32 J/K/mol

$$$$
>  <molecule>
OC[C@H](O)C(O)[C@@H](O)CO [L-(-)-arabitol]

>  <recordedValue>
179.26 ± 36 J/K/mol

$$$$
>  <molecule>
O[C@H]1[C@H](O)[C@@H](O)[C@H](O)[C@@H](O)[C@H]1O [cis-1,2,3,5-trans-4,6-cyclohexanehexol]

>  <recordedValue>
188.05 ± 26 J/K/mol

$$$$
>  <molecule>
OC[C@@H](O)C(O)[C@H](O)CO [D-arabitol]

>  <recordedValue>
173.8 ± 14 J/K/mol

$$$$
>  <molecule>
OC[C@@H](O)[C@H](O)[C@@H](O)CO [xylitol]

>  <recordedValue>
181.27 ± 11 J/K/mol

$$$$
>  <molecule>
OC[C@@H](O)[C@@H](O)CO [meso-1,2,3,4-butanetetrol]

>  <recordedValue>
143.78 ± 17 J/K/mol

$$$$

====

# testDetails: molar heat capacity at constant pressure
# condition: 327.15 K; 101.33 kPa; Crystal; Small sample (50 mg) DSC
Numbers after ± are expanded uncertainties.
reportedProperty: molar heat capacity at constant pressure

>  <compound>
OC[C@@H](O)[C@@H](O)CO [meso-1,2,3,4-butanetetrol]

>  <reportedProperty>
molar heat capacity at constant pressure

>  <recordedValue>
182.72 ± 22 J/K/mol

$$$$
>  <compound>
OC[C@H](O)C(O)[C@@H](O)CO [L-(-)-arabitol]

>  <reportedProperty>
molar heat capacity at constant pressure

>  <recordedValue>
234.58 ± 47 J/K/mol

$$$$
>  <compound>
OC[C@@H](O)C(O)[C@H](O)CO [D-arabitol]

>  <reportedProperty>
molar heat capacity at constant pressure

>  <recordedValue>
226.61 ± 18 J/K/mol

$$$$
>  <compound>
OC[C@@H](O)[C@H](O)[C@@H](O)CO [xylitol]

>  <reportedProperty>
molar heat capacity at constant pressure

>  <recordedValue>
234.07 ± 14 J/K/mol

$$$$
>  <compound>
O[C@H]1[C@H](O)[C@@H](O)[C@H](O)[C@@H](O)[C@H]1O [cis-1,2,3,5-trans-4,6-cyclohexanehexol]

>  <reportedProperty>
molar heat capacity at constant pressure

>  <recordedValue>
243.8 ± 34 J/K/mol

$$$$
>  <compound>
OC[C@@H](O)[C@@H](O)[C@H](O)[C@H](O)CO [D-mannitol]

>  <reportedProperty>
molar heat capacity at constant pressure

>  <recordedValue>
256.67 ± 41 J/K/mol

$$$$
